Source listed as patent US20220177587A1.

# target_system: human CTLA-4 (human) (UniProt P16410)
# Sequence (P16410 36-223): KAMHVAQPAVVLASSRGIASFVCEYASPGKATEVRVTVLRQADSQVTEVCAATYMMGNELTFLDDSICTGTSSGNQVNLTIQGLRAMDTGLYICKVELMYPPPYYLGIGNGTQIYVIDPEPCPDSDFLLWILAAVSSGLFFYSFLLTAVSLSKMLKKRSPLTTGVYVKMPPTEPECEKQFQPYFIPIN
# protocol_text: flow cytometry, CHO cells expressing huCTLA4, vs WT CD80 ECD-Fc (R&D)
readout_label: Fold change to WT CD80 (fold)
The figure you give is taken to be in fold; do not add the unit.

Would you please look over these solved cases?
INSERT INTO measurements (binder, quantitative_result) VALUES
  ('variant CD80 IgV-Fc V22A/E35D/M47I/Y87N (Fc fusion) VIHVTKEVKEVATLSCGHNVSAEELAQTRIYWQKDKKMVLTMMSGDINIWPEYKNRTIFDITNNLSIVILALRPSDEGTYECVVLKNEKDAFKREHLAEVTLSVKAD', 1.56),
  ('variant CD80 IgV-Fc Q27H/E35D/M47I/L85Q/D90G (Fc fusion) VIHVTKEVKEVATLSCGHNVSVEELAHTRIYWQKDKKMVLTMMSGDINIWPEYKNRTIFDITNNLSIVILALRPSDEGTYECVVQKYEKGAFKREHLAEVTLSVKAD', 1.64);

Input: Dear colleague, I am looking for the recorded Fold change to WT CD80 of the following binder: variant CD80 IgV-Fc E35D/D46E/M47V/V68M/D90G/K93E (Fc fusion) VIHVTKEVKEVATLSCGHNVSVEELAQTRIYWQKDKKMVLTMMSGEVNIWPEYKNRTIFDITNNLSIMILALRPSDEGTYECVVLKYEKGAFEREHLAEVTLSVKAD
Output: 1.74

Input: Dear colleague, I am looking for the recorded Fold change to WT CD80 of the following binder: variant CD80 IgV-Fc E35D/M47I/L85Q/D90G (Fc fusion) VIHVTKEVKEVATLSCGHNVSVEELAQTRIYWQKDKKMVLTMMSGDINIWPEYKNRTIFDITNNLSIVILALRPSDEGTYECVVQKYEKGAFKREHLAEVTLSVKAD
Output: 1.57

Input: Dear colleague, I am looking for the recorded Fold change to WT CD80 of the following binder: variant CD80 IgV-Fc E35D/M47L/A71G/L85M/F92Y (Fc fusion) VIHVTKEVKEVATLSCGHNVSVEELAQTRIYWQKDKKMVLTMMSGDLNIWPEYKNRTIFDITNNLSIVILGLRPSDEGTYECVVMKYEKDAYKREHLAEVTLSVKAD
Output: 1.37
